tgt: human recombinant ETB receptors (Homo sapiens, UniProt P24530)
Construct: expressed in transfected cells; host or cells: CHO cells (microsomal membranes)
Sequence (P24530 27-442): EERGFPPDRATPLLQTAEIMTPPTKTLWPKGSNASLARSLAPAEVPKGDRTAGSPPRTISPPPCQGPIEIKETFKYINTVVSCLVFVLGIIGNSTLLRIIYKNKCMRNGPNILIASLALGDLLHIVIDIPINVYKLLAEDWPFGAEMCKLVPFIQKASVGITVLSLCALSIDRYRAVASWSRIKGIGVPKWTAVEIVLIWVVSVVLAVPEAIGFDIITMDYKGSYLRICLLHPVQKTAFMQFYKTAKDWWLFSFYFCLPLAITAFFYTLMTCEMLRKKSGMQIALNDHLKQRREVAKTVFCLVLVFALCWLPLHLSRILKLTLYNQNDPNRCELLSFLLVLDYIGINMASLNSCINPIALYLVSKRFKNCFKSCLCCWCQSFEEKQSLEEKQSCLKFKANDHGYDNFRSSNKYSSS
assay-info: Inhibition of [125I]ET-1 binding to membranes from CHO cells carrying human ETB receptors
Measured IC50, listed per entry for reference.
Give the number; nM is assumed, so skip it.

COc1cnc(OCCOc2nc(C3CC3)nc(NS(=O)(=O)/C=C/c3ccccc3)c2-c2ccc(C)cc2)nc1 [Example 133]; 1770
Cc1ccc(-c2c(NS(=O)(=O)/C=C/c3ccccc3)nc(C3CC3)nc2OCCOc2ncc(Cl)cn2)cc1 [Example 134]; 4890
COc1ccccc1Oc1c(NS(=O)(=O)/C=C/c2cccs2)nc(-c2ncccn2)nc1OCCOc1ncc(Br)cn1 [Example 157]; 4500

Exercise: State IC50 (human recombinant ETB receptors (Homo sapiens, UniProt P24530)) of CS(=O)(=O)c1nc(NS(=O)(=O)/C=C/c2ccccc2)c(-c2ccccc2)c(OCCOc2ncc(Br)cn2)n1 [Example 107] .
Key: 4640

Exercise: Send back human recombinant ETB receptors (Homo sapiens, UniProt P24530) IC50 of COc1nc(NS(=O)(=O)/C=C/c2ccccc2)c(-c2ccccc2)c(OCCOc2ncc(Br)cn2)n1 [Example 114] only.
Key: 3880

Exercise: Answer with IC50 of COc1cccc(Oc2c(NS(=O)(=O)/C=C/c3ccccc3)ncnc2OCCOc2ncc(Br)cn2)c1 [Example 230] measured for human recombinant ETB receptors (Homo sapiens, UniProt P24530).
Key: 937

Exercise: Tell me its IC50 on human recombinant ETB receptors (Homo sapiens, UniProt P24530): O=S(=O)(/C=C/c1ccccc1)Nc1ncnc(OCCOc2ncc(C(F)(F)F)cn2)c1-c1ccccc1 [Example 95]
Key: 8390

Exercise: Provide IC50, tested on human recombinant ETB receptors (Homo sapiens, UniProt P24530), for O=S(=O)(/C=C/c1ccccc1)Nc1ncnc(OCCOc2ncc(Br)cn2)c1-c1ccc(Br)cc1 [Example 85] .
Key: 238

Exercise: // fetch IC50 for O=S(=O)(/C=C/c1ccccc1)Nc1ncnc(OCCOc2ncc(Br)cn2)c1-c1ccc(Cl)cc1 [Example 43] ; system: human recombinant ETB receptors (Homo sapiens, UniProt P24530)
Key: 408

Exercise: // fetch IC50; item: Cc1ccc(-c2c(NS(=O)(=O)/C=C/c3ccccc3)ncnc2OCCOc2ncc(Cl)cn2)cc1 [Example 14] ; system: human recombinant ETB receptors (Homo sapiens, UniProt P24530)
Key: 841
